target: Glucocorticoid receptor (Rattus norvegicus)
Sequence (P06536 whole entry): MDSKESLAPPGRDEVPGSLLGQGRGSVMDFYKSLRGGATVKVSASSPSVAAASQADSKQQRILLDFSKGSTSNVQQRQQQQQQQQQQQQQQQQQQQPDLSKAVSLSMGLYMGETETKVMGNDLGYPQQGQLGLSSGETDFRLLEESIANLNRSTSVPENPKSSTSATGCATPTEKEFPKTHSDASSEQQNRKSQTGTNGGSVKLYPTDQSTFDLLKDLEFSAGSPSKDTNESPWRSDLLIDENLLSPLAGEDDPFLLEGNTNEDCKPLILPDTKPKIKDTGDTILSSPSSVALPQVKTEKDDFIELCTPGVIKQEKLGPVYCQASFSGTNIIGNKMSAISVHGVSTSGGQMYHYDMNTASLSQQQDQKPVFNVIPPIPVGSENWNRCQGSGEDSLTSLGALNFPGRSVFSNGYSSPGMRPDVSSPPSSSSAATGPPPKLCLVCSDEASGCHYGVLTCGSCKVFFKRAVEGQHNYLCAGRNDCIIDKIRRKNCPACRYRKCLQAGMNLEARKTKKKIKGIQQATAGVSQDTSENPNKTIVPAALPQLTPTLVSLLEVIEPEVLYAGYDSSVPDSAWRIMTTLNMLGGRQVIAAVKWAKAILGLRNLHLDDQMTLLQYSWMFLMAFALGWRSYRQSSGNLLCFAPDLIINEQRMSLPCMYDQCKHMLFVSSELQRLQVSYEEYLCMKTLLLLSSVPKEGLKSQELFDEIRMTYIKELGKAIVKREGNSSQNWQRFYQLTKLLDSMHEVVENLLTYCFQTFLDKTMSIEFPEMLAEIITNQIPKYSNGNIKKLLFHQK
protocol-details: Effective concentration against MMTV in transactivation assay in U2OS cells expressing rat GR
Type: functional, cell-based
Assignment: determine reported pEC50 for the given molecules.
Give bare numbers, as −log10 of the molar value.

Field: example entries. Status: answers known.
INSERT INTO assay_data (molecule, reading) VALUES
  ('C[C@]12Cc3cnn(-c4ccc(F)cc4)c3C=C1CCC[C@@H]2C(O)c1csc2ccccc12 (some centres undefined)', 7.70),
  ('COc1cccc(C(O)[C@H]2CCCC3=Cc4c(cnn4-c4ccc(F)cc4)C[C@@]32C)c1 (some centres undefined)', 8.40),
  ('C[C@]12Cc3cnn(-c4ccc(F)cc4)c3C=C1CCC[C@@H]2C(O)c1ccc(C(F)(F)F)cc1 (some centres undefined)', 7.51);

Consider now this further molecule.
Please supply the value of reported pEC50 for the item C[C@]12Cc3cnn(-c4ccc(F)cc4)c3C=C1CCC[C@@H]2C(O)c1ccc(Cl)cc1 (some centres undefined)
8.05
